molecular target: T1, YU2 gp140-foldon trimer (HIV-1 isolate YU2 (clade B), UniProt P35961, stabilised); assay: ELISA; Env glycoprotein coated at 2 ug/ml in PBS pH 7.4 overnight at 4 C; IgG 5-fold serially diluted, 1 hour at RT; HRP goat anti-human IgG (H+L); conditions: both partners purified
T1 construct: also called eliciting gp140-F immunogen; gp140 trimers; source: 293 F cells; not shown: His tag, C-terminal, kept
parameter measured: binding result

{"binder": "GEBT404, mature IgG (antibody, V domains shown) VH: EVQLVESGGGLAKPGGSLRLSCAASGFTFSNYWMYWVRQAPGKGLEWISAINSAGSRTYYPDSVKGRFTISRENAKNTLYLQMDSLRAEDTAVYYCAKGRIAIFGLVITYFDYWGQGVLVTVSS VL: DIQMTQSPSSLSASVGDRVTITCRASQGITNDLAWYQQKPGETPKLLIYDASSLQSGIPSRFSGSGSGTDFTLTISSLQPEDFATYYCQHYYSTPPTFGGGTKVEIK", "reported value": "binds"}
